Cited source for all entries: the nanobody polyreactivity screen of Harvey et al. (2022)

Assay: yeast display, Sf9 membrane polyspecificity reagent, FACS + sequencing; frameworks hold sequencing errors
OBSERVABLE: polyreactivity (PSR sort gate)

Some solved entries appear below for comparison.
QVQLVESGGGLVQAGGSLRLSCAASGSIFFRNAMGWYRQAPGKERELVAAITFSGGRTYYADSVKGRFTISRDTANNTVYLQMNSMKPEDTAVYYCAGRRSYTYARYDYWGQGTQVTVSS: high polyreactivity
QVQLVESGGGLVQAGGSLRLRCAASGFIFSAYAMGWYSQAPGKERELVAGITKSVGRTTYADSVKGRFTIARDNAKNTVYLQMNSLKPEDTAVYYCNARRSYTYRIFGMDYWGQGTQVTVSS: high polyreactivity
QDQLVESGGGIVQAGGSLRLSCAASGSTFPIYAMGWYRQAPGKERELVADITSTGSTDYADSVKGRFTISRDNAKNTVYLQMNSLKPEDTAVYYCAADYYYSAYFWSDFDYWGQGTQVTVSS: high polyreactivity
QVQLVESGGGLVQAGGSLRLSCAASGFTFQYYAMGWYRQAPVKERELVAAINWSGGRTYYADSVKGRFTISRDNAKNTVYLQMNSLKPEDTAVYYCAAPRSFSGGYGYVSYDYWGQGTQVTVSS: high polyreactivity
QVQLVESGGGLVQAGGRLRLSCAASVFIFGIYASGWYRQAPGKDRELVAAITWDTGSTYYADSVKGRFTISRDNAKNTVYLQMNRLKPEDTAVYYRAVDGWDLTYYDSYYSWGQGTQVTVSS: high polyreactivity
QVQLVESGGGLVQAGGSLRLSCAASGITFGANTMGWYRQAPGKERELVAAITISGGITHYADSVKGRFTISRDNAKNTVYLQMNSLKPEDTAVYYCAAGAYWRLYPYRQRNGGRMYYWGQGTQVTVSS: low polyreactivity

Query polyreactivity (PSR sort gate) for QVQLVESGGGLVQAGGSLRLSCAASGSTFGVNAMGWYRQAPGKERELVASIRKRGGTTYYADSVKGRFTISRDNAKNTVYLQMNSLKPEDTAVYYCAAQYGDEVDYWGQGTQVTVSS
high polyreactivity

Query polyreactivity (PSR sort gate) for QLQLVESGGGLVQAGGRLRLTCAASGSIFFGNVMGLYIQAPGKERELVAVISWSGGTTYYADSVKGRFTISRDNAKNTVYLQMNSLKTEDTAVYYCNARYLRRGDYWGQGTQVTVSS
low polyreactivity

Query polyreactivity (PSR sort gate) for QVQLVESGGGLVQAGGSLRLSCAASGSIFYRNVMGWYRQAPGKERELVATISRGGTTNYADSVKGRFTISRDNAKNTVYLQMNSLKPEDTAVYYCALKQSYYFGSYFYGHEYYYWGPGTQVTVSS
low polyreactivity

Query polyreactivity (PSR sort gate) for QVQLVESGGGLVQAGGSLRLSCAASGSIFRIYAMGWYRQAPGKERELVAAISWSGGSTYYADSVKGRFTISRDNANNTVYLQMNSRKPEDTAVYYCAARPRYKYSAYEYWGQGTQVTVSS
high polyreactivity

Query polyreactivity (PSR sort gate) for QVQLVESGGGLVQAGGSLRLSCAASGSIFNYYAMGWYRQAPGKERDLVAAITTSGGNTYYADSVKGRFTISRDNAKNTVYLLMYSLKPEDTAVYYCAADYWASGGEYDYWGQGTQVSVSS
low polyreactivity

Query polyreactivity (PSR sort gate) for QVQLVESGGGLVQAGGSLRLSCAASGSIFPSNVMGWYRQAPGKERELVAAISTTGSTYYADSVKGRFTISRDNAKNTVYLQMNSLKTEDTAVYDCAAEYWSYAHGGQLYGYDYWGQGTQVTVSS
low polyreactivity

Query polyreactivity (PSR sort gate) for QVQLVESVGGLVQAGGSLRLSCAASGSTFNQYAMGWYRHPPGKERELVAAISWSGGRTYYADSVKGRFTISRDNAKNTVYLQMNSLKPEDTSVYYCNKLTRDGRKEDYWGQGTQVTVSS
high polyreactivity

Query polyreactivity (PSR sort gate) for QVQLVESWGGLVQAGGSLRLSCAASGLIIYTYAMGWYRQAPGKERELVADINRSDGSTYYADSVKGRFTISRDNAKNTVYLQMNSLKPEDTAVYYCAVVGPYYSRFGGRYYYWGQGTQVTVSS
low polyreactivity

Query polyreactivity (PSR sort gate) for QVQLVESVGGLVQAGGSLRLSCAASGRTFLNYAMGWYRQAPGKEREFVAAITWRVGTTYYADSVKGRFTISRDNAKNTVYLQMNSLKPEDTAVYYCNAVTARQSSQGEMDYWGQGTQVTVSS
high polyreactivity

Query polyreactivity (PSR sort gate) for QVQLVESGGGLVQAGGSLRLSCAASGITFLYYAMGWYRQAPGQERELVAAITSSGGRTYYADSVKGRFTISRDNAKNTVYLQMNSLKPEDTAVYYCAADSRTYNGGYYWGQGTQVTVSS
high polyreactivity
